tested on: P-gp; assay: Bidirectional transport of digoxin across monolayers with and without zosuquidar; assay type: in vitro ADME; settings: human, with zosuquidar (concentration not stated), conventional scaffold; in the presence of P-gp inhibitor zosuquidar; n = 3; read-out: efflux ratio Papp(B-L)/Papp(L-B)
recordedEndpoint: efflux ratio at 3 h
Lab note: jot the number down without any unit.

Prompt line: Request the reported efflux ratio at 3 h associated with C[C@H]1O[C@@H](O[C@H]2[C@@H](O)C[C@H](O[C@H]3[C@@H](O)C[C@H](O[C@H]4CC[C@@]5(C)[C@H](CC[C@@H]6[C@@H]5C[C@@H](O)[C@]5(C)[C@@H](C7=CC(=O)OC7)CC[C@]65O)C4)O[C@@H]3C)O[C@@H]2C)C[C@H](O)[C@@H]1O
Response line: 1.4

Source: paper PMC6487070
